Biological target: T1, PCSK9-D374Y-BP15-His6 (human, UniProt Q8NBP7 31-692, biotin on the BP15 biotin receiving peptide)
T1 construct: also called PCSK9-Y; mutant PCSK9
Experiment: ELISA, bio-PCSK9-Y captured on streptavidin plate
Protocol: The binding ability of anti-PCSK9 antibodies of the present invention to PCSK9-Y was detected by measuring the amount of antibodies binding to PCSK9-Y (mutant PCSK9, SEQ ID NO: 6) fixed on the ELISA plate. Streptavidin (sigma, CAT#54762) was diluted to 2 μg/ml with PBS and coated into 96-well ELISA plate at 4° C. overnight. […] Finally, the stop solution was added and the OD450 value was measured on the Microplate reader, and then EC50 was calculated. […]
test.readout: EC50 (µg/mL)

>  <binder>
h001-7 (antibody, human IgG1, V domains shown, Variable regions only; also called h001_VH.1A + h001_VL.1B) VH: QVQLVQSGAEVKKPGASVKVSCKASGYTFNDYWMHWVRQAPGQGLEWMGYINPSSGFTKYHQNFKDRVTMTRDTSISTAYMELSRLRSDDTAVYYCARQYDYDEDWYFDVWGQGTTVTVSS VL: DIQMSQSPSSLSASVGDRVTITCKSSQSLLNSRTRKNFLAWYQQKPGKAPKLLIYWASTRESGVPDRFSGSGSGTDFTLTISSLQPEDFATYYCKQSFNLFTFGQGTKLEIK

>  <obs.value>
0.0137

$$$$
>  <binder>
h001-23 (antibody, human IgG1, V domains shown, Variable regions only; also called h001_VH.1E + h001_VL.1B) VH: QVQLVQSGAEVKKPGASVKVSCKASGYTFNDYWMHWVKQAPGQGLEWIGYINPSSGFTKYHQNFKDKATLTADKSISTAYMELSRLTSDDTAVYYCARQYDYDEDWYFDVWGQGTTVTVSS VL: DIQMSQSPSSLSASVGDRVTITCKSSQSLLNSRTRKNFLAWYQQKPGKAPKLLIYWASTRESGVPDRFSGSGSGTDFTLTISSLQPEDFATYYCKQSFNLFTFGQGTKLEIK

>  <obs.value>
0.0125

$$$$
>  <binder>
h001-20 (antibody, human IgG1, V domains shown, Variable regions only; also called h001_VH.1D + h001_VL.1C) VH: QVQLVQSGAEVKKPGASVKVSCKASGYTFNDYWMHWVRQAPGQGLEWMGYINPSSGFTKYHQNFKDRVTMTADKSISTAYMELSRLTSDDTAVYYCARQYDYDEDWYFDVWGQGTTVTVSS VL: DIVMSQSPSSLSASVGDRVTITCKSSQSLLNSRTRKNFLAWYQQKPGKSPKLLIYWASTRESGVPDRFSGSGSGTDFTLTISSLQPEDFATYYCKQSFNLFTFGQGTKLEIK

>  <obs.value>
0.017

$$$$

Entry source: patent US20190016825A1
